- System: SW-620 colon
- method description: NCI-60 one-dose screen, 48 h (100 = growth as untreated, 0 = no growth, -100 = all killed)
- details: 10 µM unless noted
This is part of a sample that, as a whole, favours compounds with a hit. Of some 83,000 tested, about 20% had one in any assay.
recorded metric: growth (%)
Please state the figure in %; there is no need to write the unit.

Value sought: growth, system SW-620 colon, item CC1(c2cc3cc(Br)ccc3oc2=O)NC(=O)c2c(/C=C/C(=O)OC3CC4CCC3(C)C4(C)C)cccc2N1 (centres undefined) . Result: 89.1

Value sought: growth, system SW-620 colon, item C=C1CCC2C3(C)COC(c4ccc(F)cc4)OC3CCC2(C)C1CC(O)C1=CCOC1=O (centres undefined) . Result: 2.53

Value sought: growth, system SW-620 colon, item COc1ccc(CCC2c3c(cc4c(c3OC)OCO4)CCN2C)cc1 (centres undefined) . Result: -78.1

Value sought: growth, system SW-620 colon, item COc1c(F)ccc(C(=O)Nc2ccc3nc(NC(=O)C4CCCN(S(=O)(=O)c5ccc(C(F)(F)F)cc5)C4)sc3c2)c1F (centres undefined) . Result: 95.1

Value sought: growth, system SW-620 colon, item `CC(=O)c1c(N)c(C#N)cn1-c1ccc(Cl)cc1Cl` . Result: 102

Value sought: growth, system SW-620 colon, item COc1ccc(C2=NN(c3ccccc3)C(c3ccc(OCc4ccccc4)c(OC)c3)C2)cc1OC (centres undefined) . Result: 101

Value sought: growth, system SW-620 colon, item `CC(C)Sc1nc(NCCc2c[nH]c3ccccc23)c(C#N)c(-c2ccccc2)n1` . Result: -11.6

Value sought: growth, system SW-620 colon, item `Cc1ccc(Cc2cnc(NC(=O)c3ccc(/C=C4\SC(=S)N(C)C4=O)cc3)s2)cc1` . Result: 35.8

Value sought: growth, system SW-620 colon, item `O=C(COc1ccc2c(c1)CCCC(=O)N2)NCc1ccccc1` . Result: 60.9
